Tested on: Saccharomyces cerevisiae
Assay: protein stability index of tFT-peptide fusion (C-terminal peptide) (PSI (0-1 scale)); higher = more stable (slower turnover)
Conditions: genetic background: das1 deletion; temperature: 30 C
Measured protein stability index, listed per entry.
MEASURED_QUANTITY: protein stability index

INSERT INTO results (query_sequence, observed) VALUES
  ('FCTVYFVCVWEM', 0.209),
  ('TVIVCCHLEVVY', 0.0294),
  ('LMWVFPRVVWLY', 0.244),
  ('AVLFAPPLSSNF', 0.64),
  ('RGYATTALHWVS', 0.676),
  ('VVLVLLCIGRLL', 0.305),
  ('WQSFRDKLIKGN', 0.643),
  ('DSSRRKRLICMN', 0.656),
  ('PDPIFGEWVYMV', 0.644),
  ('VARLGGRIGWEG', 0.634),
  ('NLDRYYKKIKLI', 0.689),
  ('LVLFVVGGWVSL', 0.316),
  ('FIMHRIFMALVI', 0.381),
  ('SFLLVWCLLPEI', 0.309),
  ('CFFLLLRVSLFP', 0.143),
  ('RQALYFLMICGL', 0.407),
  ('LDVGGRRGGEHC', 0.554),
  ('CKGPPVKFIVLM', 0.597),
  ('VVATLRCLRCSV', 0.346);

====

Measured protein stability index, listed per entry.
System: Saccharomyces cerevisiae
Experiment: protein stability index of tFT-peptide fusion in wild type (PSI (0-1 scale)); higher = more stable (slower turnover)
Conditions: genetic background: wild type
MEASURED_QUANTITY: protein stability index

INSERT INTO measurements (query_sequence, observed) VALUES
  ('GLYMCSHGCWFR', 0.435),
  ('ARWRVGLWRGAW', 0.68),
  ('ARWRVGLWRYAS', 0.0836),
  ('RLIQPLPVQFVN', 0.0426),
  ('GLYMHSVGCWFR', 0.255),
  ('FSMRWTFSYWVN', 0.0568),
  ('GLYMCSFGCWFR', 0.239),
  ('RSLRVLLPLYFRT', 0.268),
  ('RSLRVLLPLYFK', 0.25),
  ('RLIQPLPVQFMN', 0.0175),
  ('PDKRNHLIKLLNM', 0.145),
  ('PDKRNHCIKLLN', 0.148),
  ('KKHKKGFKQKIN', 0.0758),
  ('PSLAESFWRVVG', 0.482),
  ('PDKRNHLIKLFN', 0.346),
  ('RNLRVLLPLYFR', 0.302),
  ('DRGAVGGWRLVG', 0.176),
  ('VRGAWGGWRLVG', 0.147),
  ('CTSCGYKFRTNG', 0.399);

====

Test system: Saccharomyces cerevisiae
Test: protein stability index of tFT-peptide fusion (C-terminal peptide) (PSI (0-1 scale)); higher = more stable (slower turnover)
Details: genetic background: wild type; temperature: 30 C
Parameter threshold = 0.7. Response is MET when protein stability index meets or exceeds it, else NOT MET.

INSERT INTO results (query_sequence, assigned_category) VALUES
  ('IAAFVVAVLFAF [PRY3 C-terminal 12 aa]', 'NOT MET'),
  ('QQPNQNQNQNSK [FIP1 C-terminal 12 aa]', 'NOT MET'),
  ('TYFSFHILFHNL [YOR309C C-terminal 12 aa]', 'NOT MET'),
  ('KRHLTPAVELDY [PRP40 C-terminal 12 aa]', 'NOT MET'),
  ('TGFFGKLKKLFK [CRP1 C-terminal 12 aa]', 'MET'),
  ('GPSIIMTLYLTL [ARE1 C-terminal 12 aa]', 'NOT MET'),
  ('VEKVKKFVEENN [YML108W C-terminal 12 aa]', 'NOT MET'),
  ('TNVGLKLIAIAK [PPM2 C-terminal 12 aa]', 'NOT MET'),
  ('GIGFTNTSKKIA [RCL1 C-terminal 12 aa]', 'NOT MET'),
  ('RTHAMLNDIQNI [BNR1 C-terminal 12 aa]', 'MET'),
  ('FLLTASRGIAQF [YBR116C C-terminal 12 aa]', 'MET'),
  ('RGRIAAQKRISA [RPL17B C-terminal 12 aa]', 'NOT MET'),
  ('ILNCVGSAKISG [YGR291C C-terminal 12 aa]', 'NOT MET'),
  ('LLRPRSPVQKAQ [KAR4 C-terminal 12 aa]', 'NOT MET'),
  ('YKTQTGNFQVRL [APM3 C-terminal 12 aa]', 'MET'),
  ('EPRYNDDAQVSD [KCS1 C-terminal 12 aa]', 'NOT MET'),
  ('RLLSLWEVFQMA [RPC82 C-terminal 12 aa]', 'NOT MET'),
  ('ITKQKALDYHYL [CBS2 C-terminal 12 aa]', 'NOT MET'),
  ('LSEEALSTCCCS [YJL118W C-terminal 12 aa]', 'MET'),
  ('AAPQDINQQPNQ [LDS1 C-terminal 12 aa]', 'NOT MET'),
  ('YSFNKLTMTILY [YER137W-A C-terminal 12 aa]', 'NOT MET'),
  ('HKGSHFYIQLPI [YAL034C-B C-terminal 12 aa]', 'NOT MET'),
  ('VNPKAKRPSNEK [NOP2 C-terminal 12 aa]', 'MET'),
  ('EKMKKNQSIGWF [MRPL25 C-terminal 12 aa]', 'MET'),
  ('TYQLIEKNRNSK [BLS1 C-terminal 12 aa]', 'NOT MET');

====

Tested on: Saccharomyces cerevisiae
Test: protein stability index of tFT-peptide fusion (C-terminal peptide) (PSI (0-1 scale)); higher = more stable (slower turnover)
Conditions: genetic background: cdc34-1; temperature: 37 C
Parameter threshold = 0.6. Response is T when protein stability index meets or exceeds it, else F.

INSERT INTO measurements (query_sequence, target_desc, assigned_category) VALUES
  ('LFVLVLLCWMLT', 'Saccharomyces cerevisiae', 'F'),
  ('VYRILFWFLCFG', 'Saccharomyces cerevisiae', 'F'),
  ('LKKTLNGRRKMI', 'Saccharomyces cerevisiae', 'T'),
  ('GFAFFIGLSFAF', 'Saccharomyces cerevisiae', 'F'),
  ('SYVVVFVIFCVG', 'Saccharomyces cerevisiae', 'F'),
  ('IILAIRLLVDTL', 'Saccharomyces cerevisiae', 'F'),
  ('CWYRAVSIQYVL', 'Saccharomyces cerevisiae', 'F'),
  ('GTETWVFVLLKF', 'Saccharomyces cerevisiae', 'F'),
  ('VMYRGVRISWFL', 'Saccharomyces cerevisiae', 'F'),
  ('VLLVSVFVATLL', 'Saccharomyces cerevisiae', 'F'),
  ('VFFCLFWFFCSF', 'Saccharomyces cerevisiae', 'F'),
  ('LFMLHFLAVLRY', 'Saccharomyces cerevisiae', 'F'),
  ('TDFICLLWLLHW', 'Saccharomyces cerevisiae', 'F'),
  ('FCDFLFVFPLFS', 'Saccharomyces cerevisiae', 'F'),
  ('RLGRYSIIHCLA', 'Saccharomyces cerevisiae', 'F'),
  ('VRGSPNVMWKSQ', 'Saccharomyces cerevisiae', 'T'),
  ('VVWIQRTVLSLI', 'Saccharomyces cerevisiae', 'F'),
  ('INKRDARIHLLM', 'Saccharomyces cerevisiae', 'T'),
  ('VNILFCLFFLLV', 'Saccharomyces cerevisiae', 'F'),
  ('WGCTGGRGRLVC', 'Saccharomyces cerevisiae', 'T'),
  ('SFLVFLYFFMVF', 'Saccharomyces cerevisiae', 'F'),
  ('LILRVLFLFEPC', 'Saccharomyces cerevisiae', 'F'),
  ('CTAWWVKGVAVK', 'Saccharomyces cerevisiae', 'T'),
  ('RYLCLTPALYLS', 'Saccharomyces cerevisiae', 'F'),
  ('VCWCVVVLEFGL', 'Saccharomyces cerevisiae', 'F'),
  ('PPSPPPLSASVP', 'Saccharomyces cerevisiae', 'T'),
  ('GLVCPWLIVRFV', 'Saccharomyces cerevisiae', 'F'),
  ('VLFLLLFVSRVA', 'Saccharomyces cerevisiae', 'F'),
  ('PFAFLSLVLLLP', 'Saccharomyces cerevisiae', 'F'),
  ('LWFRCVRMQACR', 'Saccharomyces cerevisiae', 'F'),
  ('LCSCAVVICCSL', 'Saccharomyces cerevisiae', 'F'),
  ('VECPWFCLGVLA', 'Saccharomyces cerevisiae', 'F'),
  ('LLTLILRIFVLN', 'Saccharomyces cerevisiae', 'F'),
  ('CVLLVFLHLCLA', 'Saccharomyces cerevisiae', 'F'),
  ('RVHFLIVFLCRF', 'Saccharomyces cerevisiae', 'F'),
  ('SVHKYGFIKEIN', 'Saccharomyces cerevisiae', 'T'),
  ('VVATLRCLRCSV', 'Saccharomyces cerevisiae', 'F'),
  ('VSIVLHSVPCGG', 'Saccharomyces cerevisiae', 'F'),
  ('LIFRLCVCGVFW', 'Saccharomyces cerevisiae', 'F');
